# System: HeLa Kyoto;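 further: HeLa Kyoto cells arrested at G1/S by double thymidine block, proteins quantified by TMT10plex mass spectrometry in mild NP-40 versus SDS extracts, three biological replicates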
# assay.remarks: solubility in G1/S (NP-40 vs SDS abundance) (log2 ratio); higher = more soluble
# protocol.conditions: cell cycle stage: G1/S
attribute.measured: solubility in G1/S (log2)
One number for each entry.

| chain | solubility in G1/S (log2) |
| --- | --- |
| MQRALPGARQHLGAILASASVVVKALCAAVLFLYLLSFAVDTGCLAVTPGYLFPPNFWIWTLATHGLMEQHVWDVAISLTTVVVAGRLLEPLWGALELLIFFSVVNVSVGLLGAFAYLLTYMASFNLVYLFTVRIHGALGFLGGVLVALKQTMGDCVVLRVPQVRVSVMPMLLLALLLLLRLATLLQSPALASYGFGLLSSWVYLRFYQRHSRGRGDMADHFAFATFFPEILQPVVGLLANLVHSLLVKVKICQKTVKRYDVGAPSSITISLPGTDPQDAERRRQLALKALNERLKRVEDQSIWPSMDDDEEESGAKVDSPLPSDKAPTPPGKGAAPESSLITFEAAPPTL [TMEM115] | -0.146 |
| MENGYTYEDYKNTAEWLLSHTKHRPQVAIICGSGLGGLTDKLTQAQIFDYGEIPNFPRSTVPGHAGRLVFGFLNGRACVMMQGRFHMYEGYPLWKVTFPVRVFHLLGVDTLVVTNAAGGLNPKFEVGDIMLIRDHINLPGFSGQNPLRGPNDERFGDRFPAMSDAYDRTMRQRALSTWKQMGEQRELQEGTYVMVAGPSFETVAECRVLQKLGADAVGMSTVPEVIVARHCGLRVFGFSLITNKVIMDYESLEKANHEEVLAAGKQAAQKLEQFVSILMASIPLPDKAS [PNP] | 0.301 |
| MLVVEVANGRSLVWGAEAVQALRERLGVGGRTVGALPRGPRQNSRLGLPLLLMPEEARLLAEIGAVTLVSAPRPDSRHHSLALTSFKRQQEESFQEQSALAAEARETRRQELLEKITEGQAAKKQKLEQASGASSSQEAGSSQAAKEDETSDGQASGEQEEAGPSSSQAGPSNGVAPLPRSALLVQLATARPRPVKARPLDWRVQSKDWPHAGRPAHELRYSIYRDLWERGFFLSAAGKFGGDFLVYPGDPLRFHAHYIAQCWAPEDTIPLQDLVAAGRLGTSVRKTLLLCSPQPDGKVVYTSLQWASLQ [TSEN34] | 0.191 |
| MDRTCEERPAEDGSDEEDPDSMEAPTRIRDTPEDIVLEAPASGLAFHPARDLLAAGDVDGDVFVFSYSCQEGETKELWSSGHHLKACRAVAFSEDGQKLITVSKDKAIHVLDVEQGQLERRVSKAHGAPINSLLLVDENVLATGDDTGGICLWDQRKEGPLMDMRQHEEYIADMALDPAKKLLLTASGDGCLGIFNIKRRRFELLSEPQSGDLTSVTLMKWGKKVACGSSEGTIYLFNWNGFGATSDRFALRAESIDCMVPVTESLLCTGSTDGVIRAVNILPNRVVGSVGQHTGEPVEELALSHCGRFLASSGHDQRLKFWDMAQLRAVVVDDYRRRKKKGGPLRALSSKTWSTDDFFAGLREEGEDSMAQEEKEETGDDSD [WDR55] | -0.0916 |
| MELPAVNLKVILLGHWLLTTWGCIVFSGSYAWANFTILALGVWAVAQRDSIDAISMFLGGLLATIFLDIVHISIFYPRVSLTDTGRFGVGMAILSLLLKPLSCCFVYHMYRERGGELLVHTGFLGSSQDRSAYQTIDSAEAPADPFAVPEGRSQDARGY [AGTRAP] | 0.0387 |

# batch: return solubility in G1/S (log2) for each of the 3 sequences below
1. MDSAGQDINLNSPNKGLLSDSMTDVPVDTGVAARTPAVEGLTEAEEEELRAELTKVEEEIVTLRQVLAAKERHCGELKRRLGLSTLGELKQNLSRSWHDVQVSSAYVKTSEKLGEWNEKVTQSDLYKKTQETLSQAGQKTSAALSTVGSAISRKLGDMRNSATFKSFEDRVGTIKSKVVGDRENGSDNLPSSAGSGDKPLSDPAPF [TPD52L2]
2. MAVRSLWAGRLRVQRLLAWSAAWESKGWPLPFSTATQRTAGEDCRSEDPPDELGPPLAERALRVKAVKLEKEVQDLTVRYQRAIADCENIRRRTQRCVEDAKIFGIQSFCKDLVEVADILEKTTECISEESEPEDQKLTLEKVFRGLLLLEAKLKSVFAKHGLEKLTPIGDKYDPHEHELICHVPAGVGVQPGTVALVRQDGYKLHGRTIRLARVEVAVESQRRL [GRPEL2]
3. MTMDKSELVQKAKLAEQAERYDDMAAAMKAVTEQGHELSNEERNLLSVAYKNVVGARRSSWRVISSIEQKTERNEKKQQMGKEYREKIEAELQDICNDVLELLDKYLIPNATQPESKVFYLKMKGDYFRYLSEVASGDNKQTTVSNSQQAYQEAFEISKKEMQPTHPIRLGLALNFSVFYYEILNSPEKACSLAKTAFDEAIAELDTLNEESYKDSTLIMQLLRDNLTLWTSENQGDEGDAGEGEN [YWHAB]

Reply |
1: 0.127; 2: 0.335; 3: 0.324

# batch: return solubility in G1/S (log2) for each of the 3 sequences below
1. MCDFTEDQTAEFKEAFQLFDRTGDGKILYSQCGDVMRALGQNPTNAEVLKVLGNPKSDEMNVKVLDFEHFLPMLQTVAKNKDQGTYEDYVEGLRVFDKEGNGTVMGAEIRHVLVTLGEKMTEEEVEMLVAGHEDSNGCINYEAFVRHILSG [MYL6]
2. MAAFAVEPQGPALGSEPMMLGSPTSPKPGVNAQFLPGFLMGDLPAPVTPQPRSISGPSVGVMEMRSPLLAGGSPPQPVVPAHKDKSGAPPVRSIYDDISSPGLGSTPLTSRRQPNISVMQSPLVGVTSTPGTGQSMFSPASIGQPRKTTLSPAQLDPFYTQGDSLTSEDHLDDSWVTVFGFPQASASYILLQFAQYGNILKHVMSNTGNWMHIRYQSKLQARKALSKDGRIFGESIMIGVKPCIDKSVMESSDRCALSSPSLAFTPPIKTLGTPTQPGSTPRISTMRPLATAYKASTSDYQVISDRQTPKKDESLVSKAMEYMFGW [NUP35]
3. MADDLGDEWWENQPTGAGSSPEASDGEGEGDTEVMQQETVPVPVPSEKTKQPKECFLIQPKERKENTTKTRKRRKKKITDVLAKSEPKPGLPEDLQKLMKDYYSSRRLVIELEELNLPDSCFLKANDLTHSLSSYLKEICPKWVKLRKNHSEKKSVLMLIICSSAVRALELIRSMTAFRGDGKVIKLFAKHIKVQAQVKLLEKRVVHLGVGTPGRIKELVKQGGLNLSPLKFLVFDWNWRDQKLRRMMDIPEIRKEVFELLEMGVLSLCKSESLKLGLF [CMSS1]

Reply |
-0.12
0.209
-0.211
